Reference for the values: patent US20080057086A1

assay: Caco 2 monolayer permeability of 5-azacytidine with and without excipients; format: in vitro ADME; conditions: human, Caco-2, pH 7.4, with TPGS 0.001%
MEASUREMENT LABEL: Papp at 1000 micromolar (×10⁻⁶ cm/s)
The reply should contain only the number, in ×10⁻⁶ cm/s.

Incoming: What measured Papp at 1000 micromolar goes with Nc1ncn([C@@H]2O[C@H](CO)[C@@H](O)[C@H]2O)c(=O)n1 ?
Outgoing: 0.33

###

test: Clinical study of single oral doses of 5-azacytidine (oral formulation of Example 3): PK, bioavailability, safety; assay type: in vivo, human; settings: human, plasma, po, 80 mg, Subject 201; 80 mg single oral dose (Example 3 tablets); 3.5 h; read-out: Plasma concentration
MEASUREMENT LABEL: concentration at 3.5 h (ng/mL)
The reply should contain only the number, in ng/mL.

Incoming: What measured concentration at 3.5 h goes with Nc1ncn([C@@H]2O[C@H](CO)[C@@H](O)[C@H]2O)c(=O)n1 [5-azacytidine] ?
Outgoing: 6.1

###

Experiment: Clinical study of single oral doses of 5-azacytidine (oral formulation of Example 3): PK, bioavailability, safety
Type: in vivo, human
Details: human, plasma, po, 80 mg, Subject 201; 80 mg single oral dose (Example 3 tablets); 4.0 h
Procedure: The study was a multicenter, open-label, single treatment study. Patients were treated with escalating doses, in 20 mg increments, up to 200 mg. The study assessed the safety and tolerability of escalating doses, provided pilot information on the oral bioavailability of the study drug, and provided information on the single dose pharmacokinetics of the study drug after oral administration. Multicenter, open-label, single-treatment, escalating-dose PK study. […]
MEASUREMENT LABEL: concentration at 4 h (ng/mL)
The reply should contain only the number, in ng/mL.

Incoming: What measured concentration at 4 h goes with Nc1ncn([C@@H]2O[C@H](CO)[C@@H](O)[C@H]2O)c(=O)n1 ?
Outgoing: 2.43

###

test: Clinical study of single oral doses of 5-azacytidine (oral formulation of Example 3): PK, bioavailability, safety; format: in vivo, human; conditions: human, plasma, po, 80 mg, Subject 202; 80 mg single oral dose (Example 3 tablets); 3.5 h; read-out: Plasma concentration
MEASUREMENT LABEL: concentration at 3.5 h (ng/mL)
The reply should contain only the number, in ng/mL.

Incoming: What measured concentration at 3.5 h goes with Nc1ncn([C@@H]2O[C@H](CO)[C@@H](O)[C@H]2O)c(=O)n1 ?
Outgoing: 1.61

###

assay: Clinical study of single oral doses of 5-azacytidine (oral formulation of Example 3): PK, bioavailability, safety; format: in vivo, human; conditions: human, plasma, po, 80 mg, Subject 202; 80 mg single oral dose (Example 3 tablets)
MEASUREMENT LABEL: Cmax (ng/mL)
The reply should contain only the number, in ng/mL.

Incoming: What measured Cmax goes with Nc1ncn([C@@H]2O[C@H](CO)[C@@H](O)[C@H]2O)c(=O)n1 ?
Outgoing: 99.1

###

experiment: Clinical study of single oral doses of 5-azacytidine (oral formulation of Example 3): PK, bioavailability, safety; type: in vivo, human; conditions: human, plasma, po, 80 mg, Subject 102; 80 mg single oral dose (Example 3 tablets)
MEASUREMENT LABEL: AUC(0-inf) (ng·h/mL)
The reply should contain only the number, in ng·h/mL.

Incoming: What measured AUC(0-inf) goes with Nc1ncn([C@@H]2O[C@H](CO)[C@@H](O)[C@H]2O)c(=O)n1 [5-azacytidine] ?
Outgoing: 28.6

###

assay: Clinical study of single oral doses of 5-azacytidine (oral formulation of Example 3): PK, bioavailability, safety; assay type: in vivo, human; settings: human, plasma, po, 80 mg, Subject 201; 80 mg single oral dose (Example 3 tablets)
MEASUREMENT LABEL: Tmax (h)
The reply should contain only the number, in h.

Incoming: What measured Tmax goes with Nc1ncn([C@@H]2O[C@H](CO)[C@@H](O)[C@H]2O)c(=O)n1 [5-azacytidine] ?
Outgoing: 2

###

test: Clinical study of single oral doses of 5-azacytidine (oral formulation of Example 3): PK, bioavailability, safety; format: in vivo, human; conditions: human, plasma, po, 80 mg, Subject 202; 80 mg single oral dose (Example 3 tablets); 0 h; read-out: Plasma concentration
MEASUREMENT LABEL: concentration at 0 h (ng/mL)
The reply should contain only the number, in ng/mL.

Incoming: What measured concentration at 0 h goes with Nc1ncn([C@@H]2O[C@H](CO)[C@@H](O)[C@H]2O)c(=O)n1 ?
Outgoing: 0

###

test: Clinical study of single oral doses of 5-azacytidine (oral formulation of Example 3): PK, bioavailability, safety; format: in vivo, human; details: human, plasma, po, 80 mg, Subject 202; 80 mg single oral dose (Example 3 tablets); 3.0 h; read-out: Plasma concentration
MEASUREMENT LABEL: concentration at 3 h (ng/mL)
The reply should contain only the number, in ng/mL.

Incoming: What measured concentration at 3 h goes with Nc1ncn([C@@H]2O[C@H](CO)[C@@H](O)[C@H]2O)c(=O)n1 ?
Outgoing: 3.41

###

assay: Clinical study of single oral doses of 5-azacytidine (oral formulation of Example 3): PK, bioavailability, safety; format: in vivo, human; settings: human, plasma, oral, 80 mg, Subject 202; 80 mg single oral dose; SC reference dose = 135 mg, AUC = 777 ng · h/mL; read-out: F, percent bioavailability compared with historical SC azacitidine data
MEASUREMENT LABEL: bioavailability
# output: number + unit

Incoming: What measured bioavailability goes with Nc1ncn([C@@H]2O[C@H](CO)[C@@H](O)[C@H]2O)c(=O)n1 [5-azacytidine] ?
Outgoing: 22%

###

assay: Clinical study of single oral doses of 5-azacytidine (oral formulation of Example 3): PK, bioavailability, safety; type: in vivo, human; conditions: human, plasma, po, 60 mg, Subject 101; 60 mg single oral dose (Example 3 tablets); 3.0 h; read-out: Plasma concentration
MEASUREMENT LABEL: concentration at 3 h

Incoming: What measured concentration at 3 h goes with Nc1ncn([C@@H]2O[C@H](CO)[C@@H](O)[C@H]2O)c(=O)n1 [5-azacytidine] ?
Outgoing: 15.8 ng/mL

###

Assay: Caco 2 monolayer permeability of 5-azacytidine with and without excipients
Type: in vitro ADME
Conditions: human, Caco-2, pH 7.4, with Solutol 0.1%
Protocol: The Caco-2 cells are an intestinal epithelial cell line (human colon adenocarcinoma established from the primary colon tumor (adenocarcinoma)) Monolayers of Caco-2 cells are used to classify the intestinal absorption potential of a drug candidate molecule. The assay was carried out in accordance with P. Artursson and J. Karlsson, “Correlation between Oral Drug Absorption in Humans and Apparent Drug Permeability Coefficients in Human Intestinal Epithelial (Caco-2) Cells”, Biochem. Biophys. […]
MEASUREMENT LABEL: Papp at 1000 micromolar (×10⁻⁶ cm/s)
The reply should contain only the number, in ×10⁻⁶ cm/s.

Incoming: What measured Papp at 1000 micromolar goes with Nc1ncn([C@@H]2O[C@H](CO)[C@@H](O)[C@H]2O)c(=O)n1 ?
Outgoing: 0.26

###

test: Clinical study of single oral doses of 5-azacytidine (oral formulation of Example 3): PK, bioavailability, safety; type: in vivo, human; conditions: human, plasma, po, 80 mg, Subject 201; 80 mg single oral dose (Example 3 tablets); 3.0 h; read-out: Plasma concentration
MEASUREMENT LABEL: concentration at 3 h (ng/mL)
The reply should contain only the number, in ng/mL.

Incoming: What measured concentration at 3 h goes with Nc1ncn([C@@H]2O[C@H](CO)[C@@H](O)[C@H]2O)c(=O)n1 [5-azacytidine] ?
Outgoing: 14.1

###

assay: Clinical study of single oral doses of 5-azacytidine (oral formulation of Example 3): PK, bioavailability, safety; format: in vivo, human; conditions: human, plasma, po, 80 mg, Subject 201; 80 mg single oral dose (Example 3 tablets)
MEASUREMENT LABEL: AUC(0-inf) (ng·h/mL)
The reply should contain only the number, in ng·h/mL.

Incoming: What measured AUC(0-inf) goes with Nc1ncn([C@@H]2O[C@H](CO)[C@@H](O)[C@H]2O)c(=O)n1 ?
Outgoing: 111

###

test: Clinical study of single oral doses of 5-azacytidine (oral formulation of Example 3): PK, bioavailability, safety; format: in vivo, human; details: human, plasma, po, 80 mg, Subject 202; 80 mg single oral dose (Example 3 tablets); 0.5 h; read-out: Plasma concentration
MEASUREMENT LABEL: concentration at 0.5 h
# output: number + unit

Incoming: What measured concentration at 0.5 h goes with Nc1ncn([C@@H]2O[C@H](CO)[C@@H](O)[C@H]2O)c(=O)n1 ?
Outgoing: 4.46 ng/mL

###

assay: Clinical study of single oral doses of 5-azacytidine (oral formulation of Example 3): PK, bioavailability, safety; assay type: in vivo, human; settings: human, plasma, po, 60 mg, Subject 101; 60 mg single oral dose (Example 3 tablets)
MEASUREMENT LABEL: Cmax (ng/mL)
The reply should contain only the number, in ng/mL.

Incoming: What measured Cmax goes with Nc1ncn([C@@H]2O[C@H](CO)[C@@H](O)[C@H]2O)c(=O)n1 ?
Outgoing: 15.8
